assay: activity coefficient (dimensionless); of the first substance listed, at infinite dilution; xn = mol fraction of the nth substance listed; details: 398.15 K; 101.33 kPa; Liquid; Chromatography; x1 = 0
Recorded measurements of activity coefficient, one per entry
assay readout: activity coefficient

• CCCCO [butan-1-ol] + CCCC[P+](CCCC)(CCCC)CCCC.O=S(=O)([N-]S(=O)(=O)C(F)(F)F)C(F)(F)F = 1.46
• CCCC(C)=O [pentan-2-one] + CCCC[P+](CCCC)(CCCC)CCCC.O=S(=O)([N-]S(=O)(=O)C(F)(F)F)C(F)(F)F = 0.744
• C=CCCC [1-pentene] + CCCC[P+](CCCC)(CCCC)CCCC.O=S(=O)([N-]S(=O)(=O)C(F)(F)F)C(F)(F)F = 2.78
• COC(C)=O [methyl ethanoate] + CCCC[P+](CCCC)(CCCC)CCCC.O=S(=O)([N-]S(=O)(=O)C(F)(F)F)C(F)(F)F = 0.878
• CC(C)OC(C)C [diisopropyl ether] + CCCC[P+](CCCC)(CCCC)CCCC.O=S(=O)([N-]S(=O)(=O)C(F)(F)F)C(F)(F)F = 3.11
• CCCCCCCCCC [decane] + CCCC[P+](CCCC)(CCCC)CCCC.O=S(=O)([N-]S(=O)(=O)C(F)(F)F)C(F)(F)F = 9.47
• CC(C)=O [acetone] + CCCC[P+](CCCC)(CCCC)CCCC.O=S(=O)([N-]S(=O)(=O)C(F)(F)F)C(F)(F)F = 0.587

These data points were gathered from the NIST ThermoML archive (doi:10.1016/j.fluid.2018.07.028).
